Overview of reported log10 EC50 across a group of molecules:
biological target: human M1 (Homo sapiens, UniProt P11229); construct: expressed in transfected cells; host or cells: CHO cells; assay: M1 PAM assay (FLIPR intracellular calcium), human M1; assay type: cell-based; details: CHO human M1 cells, FLIPR Ca2+, with EC20 of acetylcholine; first value of the cell; read-out: hM1 EC50
Sequence (P11229 whole entry): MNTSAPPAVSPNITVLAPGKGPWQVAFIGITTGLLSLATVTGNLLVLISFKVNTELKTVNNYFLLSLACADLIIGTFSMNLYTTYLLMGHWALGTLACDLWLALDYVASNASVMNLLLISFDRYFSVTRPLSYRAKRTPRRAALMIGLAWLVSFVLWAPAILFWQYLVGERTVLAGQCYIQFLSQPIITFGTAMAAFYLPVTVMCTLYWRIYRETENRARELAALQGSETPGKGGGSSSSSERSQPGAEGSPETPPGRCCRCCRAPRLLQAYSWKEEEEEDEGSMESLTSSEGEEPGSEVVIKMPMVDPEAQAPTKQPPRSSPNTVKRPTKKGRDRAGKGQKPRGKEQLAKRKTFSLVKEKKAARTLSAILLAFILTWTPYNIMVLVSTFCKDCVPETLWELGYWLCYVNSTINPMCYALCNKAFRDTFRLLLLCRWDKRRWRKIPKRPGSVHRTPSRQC
measured_metric: log10 EC50 (log10 of the value in µM)

{"columns": ["molecule", "reported_measurement"],
 "data": [
  ["COc1ccc(F)c2c(C(=O)N[C@H]3CCCC[C@@H]3O)cn(Cc3ccc(-c4cnn(C)c4)cc3)c12", -1.08],
  ["O=C(N[C@H]1CCCC[C@@H]1O)c1cn(Cc2ccc(-c3ccno3)cc2)c2cccc(F)c12", -1.80],
  ["CS(=O)(=O)c1ccc(Cn2cc(C(=O)N[C@H]3CCCC[C@@H]3O)c3c(F)cccc32)cc1", -0.36],
  ["O=C(N[C@H]1CCOC[C@@H]1O)c1cn(CC2CCN(c3ccccn3)CC2)c2cccc(F)c12", -0.87],
  ["COc1ccc(F)c2c(C(=O)N[C@H]3CCOC[C@@H]3O)cn(Cc3ccc(-c4cnn(C)c4)cc3F)c12", -1.25],
  ["NC(=O)c1ccc(Cn2cc(C(=O)N[C@H]3CCCC[C@@H]3O)c3c(F)cccc32)cc1", -2.66],
  ["Cn1cc(-c2ccc(Cn3nc(C(=O)N[C@H]4CCOC[C@@H]4O)c4c(F)cccc43)c(F)c2)cn1 (racemic)", -1.15],
  ["Cc1cn(-c2ccc(Cn3cc(C(=O)N[C@H]4CCCC[C@@H]4O)c4c(F)c(F)ccc43)cc2)cn1", -1.00],
  ["CNC(=O)c1ccc(Cn2cc(C(=O)NC3CCOCC3)c3c(F)cccc32)cc1", -2.52],
  ["CNC(=O)c1ccc(Cn2cc(C(=O)NC3CCCCC3F)c3c(F)cccc32)cc1 (stereo not drawn)", -2.22],
  ["CNC(=O)c1ccc(Cn2cc(C(=O)NC3CCCCC3F)c3c(F)cccc32)cc1F (stereo not drawn)", -1.57],
  ["O=C(N[C@H]1CCCC[C@@H]1O)c1cn(Cc2ccc(-c3nccs3)cn2)c2cccc(F)c12", -0.81],
  ["Cc1ccc(F)c2c(C(=O)NC3CCCOC3)cn(Cc3ccc(-c4cnn(C)c4)cc3)c12 (stereo not drawn)", -0.60],
  ["Cn1cc(-c2ccc(Cn3cc(C(=O)NC4CCOCC4O)c4c(F)c(F)c(F)c(F)c43)cc2)cn1 (single isomer, unassigned)", -0.36],
  ["CNC(=O)c1ccc(Cn2cc(C(=O)NC3CCOC(C)(C)C3)c3c(F)cccc32)cc1F (stereo not drawn)", -1.46]
]}

Origin of values: patent US9708259B2
